The measurements presented in this section are drawn from ChEMBL document CHEMBL4837185.

tested on: Enterococcus faecalis; experiment: Antibacterial activity against vancomycin-resistant Enterococcus faecalis ATCC 51299 assessed as inhibition of bacterial growth measured after 16 to 20 hrs by CLSI broth microdilution method; format: functional; details: time 16-20 hrs
parameter: MIC

{"molSmiles": "CC[C@@](C)(NC(=O)[C@H](CC(C)C)NC(=O)CNC(=O)[C@@](C)(CC)NC(=O)C(C)(C)NC(=O)C(C)(C)NC(=O)C(C)(C)NC(=O)[C@H](CC(C)C)NC(C)=O)C(=O)NC(C)(C)C(=O)N1C[C@H](O)C[C@H]1C(=O)N[C@@H](CCC(N)=O)C(=O)N[C@](C)(CC)C(=O)N1C[C@H](O)C[C@H]1C(=O)NC(C)(C)C(=O)N[C@H](CO)Cc1ccccc1", "parameter": "MIC", "result": "> 100 µg/mL"}
{"molSmiles": "CC[C@@](C)(NC(=O)[C@H](CC(C)C)NC(=O)CNC(=O)[C@@](C)(CC)NC(=O)C(C)(C)NC(=O)C(C)(C)NC(=O)C(C)(C)NC(=O)[C@@H](NC(C)=O)C(C)C)C(=O)NC(C)(C)C(=O)N1C[C@H](O)C[C@H]1C(=O)N[C@@H](CCC(N)=O)C(=O)N[C@](C)(CC)C(=O)N1C[C@H](O)C[C@H]1C(=O)NC(C)(C)C(=O)N[C@H](CO)Cc1ccccc1", "parameter": "MIC", "result": "> 100 µg/mL"}
{"molSmiles": "CC[C@@](C)(NC(=O)[C@H](CC(C)C)NC(=O)CNC(=O)C(C)(C)NC(=O)C(C)(C)NC(=O)C(C)(C)NC(=O)C(C)(C)NC(=O)[C@H](CC(C)C)NC(C)=O)C(=O)NC(C)(C)C(=O)N1C[C@H](O)C[C@H]1C(=O)N[C@@H](CCC(N)=O)C(=O)N[C@](C)(CC)C(=O)N1C[C@H](O)C[C@H]1C(=O)NC(C)(C)C(=O)N[C@H](CO)Cc1ccccc1", "parameter": "MIC", "result": "> 100 µg/mL"}
